Target: 15-PGDH (Homo sapiens, UniProt P15428)
Construct: purchased Sino Biological Inc. 11205-H08E
Test: Detection of Activity of 15-PGDH Kinase (inhibition of 15-PGDH enzyme)
Format: biochemical
Conditions: class symbols; substrates β-NAD and PGF2α, pH 7.5, fluorescence Ex/Em=340/450; read-out: IC50
observable: IC50

Lab note: "Cn1ncc2cc(-c3nc4cc(C(=O)N5CCCCC5)ccc4n4ccnc34)ccc21" gave IC50 of 2 to 5 nM

Lab note: "O=C(c1ccc2c(c1)nc(-c1ccccc1)c1nccn12)N1CCOCC1" gave IC50 of 100 to 1000 nM

Lab note: "O=C(c1ccc2c(c1)nc(-c1ccc3c(c1)OCCO3)n1ccnc21)N1CCCCC1" gave IC50 of 5 to 10 nM

Lab note: "O=C(c1ccc2c(c1)nc(-c1ccc3ncnn3c1)c1nccn12)N1CCCCC1" gave IC50 of 5 to 10 nM

Lab note: "CN1Cc2cc(-c3nc4cc(C(=O)N5CCCCC5)ccc4c4nccn34)ccc2C1=O" gave IC50 of 2 to 5 nM

Lab note: "Cc1cn2c(n1)c(-c1ccc3c(c1)CN(C)C3=O)nc1cc(C(=O)N3CCCCC3)ccc12" gave IC50 of < 2 nM

Lab note: "Cn1ncc2cc(-c3nc4cc(C(=O)N5CCCCC5)ccc4c4nccn34)ccc21" gave IC50 of 2 to 5 nM

Lab note: CC1CN=C2C(c3ccc4c(c3)CN(C)C4=O)=Nc3cc(C(=O)N4CCCCC4)ccc3N21 (centres unmarked) gave IC50 of < 2 nM

Lab note: "CN(C)c1ncc(-c2nc3cc(C(=O)N4CCCCC4)ccc3c3nccn23)cn1" gave IC50 of 5 to 10 nM

Lab note: "Cn1cc2cc(-c3nc4cc(C(=O)N5CCCCC5)ccc4n4ccnc34)ccc2n1" gave IC50 of < 2 nM

Lab note: "CN1Cc2cc(-c3nc4cc(C(=O)N5CCCC5)ccc4n4ccnc34)ccc2C1=O" gave IC50 of 50 to 100 nM

Lab note: "Cn1cc(-c2nc3cc(C(=O)N4CCCCC4)ccc3c3nccn23)cn1" gave IC50 of 2 to 5 nM

Lab note: "Cn1ccc2cc(-c3nc4cc(C(=O)N5CCCCC5)ccc4c4nccn34)ccc2c1=O" gave IC50 of < 2 nM

Lab note: "CCOC(=O)c1ccc(-c2nc3cc(C(=O)N4CCCCC4)ccc3n3ccnc23)cc1" gave IC50 of 5 to 10 nM

* * *

Target: 15-PGDH (Homo sapiens, UniProt P15428)
Construct: purchased Sino Biological Inc. 11205-H08E
Sequence (P15428 1-266): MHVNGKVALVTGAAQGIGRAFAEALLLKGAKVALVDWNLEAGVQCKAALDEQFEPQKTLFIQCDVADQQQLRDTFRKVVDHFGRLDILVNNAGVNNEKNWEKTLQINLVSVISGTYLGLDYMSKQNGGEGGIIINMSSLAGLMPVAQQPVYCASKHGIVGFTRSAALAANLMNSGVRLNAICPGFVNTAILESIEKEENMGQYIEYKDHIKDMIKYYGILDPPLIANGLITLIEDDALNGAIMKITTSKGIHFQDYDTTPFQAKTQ
Assay: Detection of Activity of 15-PGDH Kinase (inhibition of 15-PGDH enzyme)
Assay type: biochemical
Details: class symbols; substrates β-NAD and PGF2α, pH 7.5, fluorescence Ex/Em=340/450; read-out: IC50
pIC50: −log10 of the molar value.
For each of the compounds below, state its pIC50.

Observed pIC50, 15-PGDH (Homo sapiens, UniProt P15428), CC(C)C1CN2C(=N1)C(c1ccc3c(c1)CN(C)C3=O)=Nc1cc(C(=O)N3CCCCC3)ccc12 (centres unmarked) : 8.00 to 8.30

Observed pIC50, 15-PGDH (Homo sapiens, UniProt P15428), "O=C(O)c1ccc(-c2nc3cc(C(=O)N4CCCCC4)ccc3n3ccnc23)cc1" : > 8.70

Observed pIC50, 15-PGDH (Homo sapiens, UniProt P15428), CC1CN2C(=N1)C(c1ccc3c(c1)CN(C)C3=O)=Nc1cc(C(=O)N3CCCCC3)ccc12 (centres unmarked) : > 8.70

Observed pIC50, 15-PGDH (Homo sapiens, UniProt P15428), "Cn1ccc2cc(-c3nc4cc(C(=O)N5CCCCC5)ccc4n4ccnc34)cnc21" : 8.30 to 8.70

Observed pIC50, 15-PGDH (Homo sapiens, UniProt P15428), "O=C(c1ccc2c(c1)nc(-c1ccc3ncsc3c1)c1nccn12)N1CCCCC1" : 8.00 to 8.30

Observed pIC50, 15-PGDH (Homo sapiens, UniProt P15428), "CCOC(=O)c1cn2cc(-c3nc4cc(C(=O)N5CCCCC5)ccc4n4ccnc34)ccc2n1" : 8.00 to 8.30

Observed pIC50, 15-PGDH (Homo sapiens, UniProt P15428), "CCOC(=O)c1cc2cc(-c3nc4cc(C(=O)N5CCCCC5)ccc4c4nccn34)ccc2[nH]1" : 8.00 to 8.30

Observed pIC50, 15-PGDH (Homo sapiens, UniProt P15428), "O=C(c1ccc2c(c1)nc(-c1ccc3ncsc3c1)n1ccnc21)N1CCCCC1" : > 8.70

Observed pIC50, 15-PGDH (Homo sapiens, UniProt P15428), "Cn1ccc(-c2nc3cc(C(=O)N4CCCCC4)ccc3c3nccn23)cc1=O" : 8.00 to 8.30

Observed pIC50, 15-PGDH (Homo sapiens, UniProt P15428), "O=C(c1ccc2c(c1)nc(-c1ccccc1)c1nccn12)N1CCC(F)(F)CC1" : 6.00 to 7.00

Observed pIC50, 15-PGDH (Homo sapiens, UniProt P15428), "O=C(c1ccc2c(c1)nc(-c1cccnc1)n1ccnc21)N1CCCCC1" : 8.30 to 8.70

Observed pIC50, 15-PGDH (Homo sapiens, UniProt P15428), "CN1Cc2cc(C3=Nc4cc(C(=O)N5CCCCC5)ccc4N4CCN=C34)ccc2C1=O" : > 8.70

Observed pIC50, 15-PGDH (Homo sapiens, UniProt P15428), "CN1Cc2cc(-c3nc4cc(C(=O)N5CCCCC5)ccc4c4ncnn34)ccc2C1=O" : > 8.70

Observed pIC50, 15-PGDH (Homo sapiens, UniProt P15428), "Nc1ncc(-c2nc3cc(C(=O)N4CCCCC4)ccc3n3ccnc23)cn1" : 8.30 to 8.70

Observed pIC50, 15-PGDH (Homo sapiens, UniProt P15428), CN1Cc2cc(C3=Nc4cc(C(=O)N5CCCCC5)ccc4N4CC(C(C)(C)C)N=C34)ccc2C1=O (centres unmarked) : 8.00 to 8.30

Observed pIC50, 15-PGDH (Homo sapiens, UniProt P15428), "CN1Cc2cc(C3=Nc4cc(C(=O)N5CCCCC5)ccc4C4=NCCN34)ccc2C1=O" : 8.00 to 8.30

Observed pIC50, 15-PGDH (Homo sapiens, UniProt P15428), "CN1Cc2cc(-c3nc4cc(C(=O)N5CCCCC5)ccc4c4nc(C(F)(F)F)nn34)ccc2C1=O" : 8.30 to 8.70

* * *

Molecular target: 15-PGDH (Homo sapiens, UniProt P15428)
Construct: purchased Sino Biological Inc. 11205-H08E
Assay: Detection of Activity of 15-PGDH Kinase (inhibition of 15-PGDH enzyme)
Type: biochemical
Conditions: class symbols; substrates β-NAD and PGF2α, pH 7.5, fluorescence Ex/Em=340/450; read-out: IC50
Method: • a. […] • a) Continuous fluorescence signal values were analyzed by using the “kinetic calculations-slope calculation method” in the PHERAstar Data analysis software to obtain the slope of each test well; • b) the inhibition rate % was calculated by using the following formula: […]
observable: IC50

Lab note: "CN1Cc2cc(-c3nc4cc(C(=O)N5CCC(F)CC5)ccc4n4ccnc34)ccc2C1=O" gave IC50 of 2 to 5 nM

Lab note: "CN1Cc2cc(-c3nc4cc(C(=O)N5CCCCC5)ccc4n4ccnc34)ccc2C1=O" gave IC50 of < 2 nM

Lab note: "O=C(c1ccc2c(c1)nc(-c1cncnc1)c1nccn12)N1CCCCC1" gave IC50 of 5 to 10 nM

Lab note: "O=C(c1ccc2c(c1)nc(-c1ccc3nccnc3c1)c1nccn12)N1CCCCC1" gave IC50 of 5 to 10 nM

Lab note: "N#Cc1ccc(-c2nc3cc(C(=O)N4CCCCC4)ccc3c3nccn23)cn1" gave IC50 of 5 to 10 nM

Lab note: "Cn1ccc2cc(-c3nc4cc(C(=O)N5CCCCC5)ccc4c4nccn34)cnc21" gave IC50 of < 2 nM

Lab note: CC(C)CC1CN2C(=N1)C(c1ccc3c(c1)CN(C)C3=O)=Nc1cc(C(=O)N3CCCCC3)ccc12 (centres unmarked) gave IC50 of 5 to 10 nM

Lab note: "O=C1OCc2cc(-c3nc4cc(C(=O)N5CCCCC5)ccc4n4ccnc34)ccc21" gave IC50 of 5 to 10 nM

Lab note: "CC(C)c1nc2c3ccc(C(=O)N4CCCCC4)cc3nc(-c3ccc4c(c3)CN(C)C4=O)n2n1" gave IC50 of 2 to 5 nM

Lab note: "CN1Cc2cc(-c3nc4ccc(C(=O)N5CCCCC5)cc4c4nccn34)ccc2C1=O" gave IC50 of 100 to 1000 nM

Lab note: "O=C(c1ccc2c(c1)nc(-c1ccc3nccnc3c1)n1ccnc21)N1CCCCC1" gave IC50 of 2 to 5 nM

Lab note: "O=C(c1ccc2c(c1)nc(-c1ccc3[nH]c(=O)[nH]c3c1)c1nccn12)N1CCCCC1" gave IC50 of < 2 nM

Lab note: "Cn1ccc2cc(-c3nc4cc(C(=O)N5CCCCC5)ccc4n4ccnc34)ccc2c1=O" gave IC50 of < 2 nM

Lab note: "CN1Cc2cc(-c3nc4cc(C(=O)N5CCCCC5)ccc4c4ccnn34)ccc2C1=O" gave IC50 of < 2 nM
